- experimentDescription: Cell Viability - LYMP2-001 (AID 921);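 further: cells exposed to compound for 24 h at 37 °C; 0% = DMSO only and full inhibition = tetraoctylammonium bromide control wells; nearly all actives have a fitted effect of over 70% in size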
- particulars: LYMP2-001 lymphoblastoid cell viability; series mostly up to 92.2 µM
Records with an inconclusive call do not appear. Activity calls are given as the source filed them. The call rests on the fitted dose curve; in most records, active means well fitted cell-killing curve with a large enough effect; inconclusive means small, poorly fitted or top-dose-only effect; inactive means no such curve, though single readings can be large or run the other way.
assayReadout: outcome

Solved cases below.
1) Cc1cc(C2(c3cc(C)c(O)cc3C)OS(=O)(=O)c3ccccc32)c(C)cc1O inactive
2) O=Cc1c(Cl)cccc1Cl inactive
3) C=CC(=O)OCCCC inactive
4) CCCCCCCCC inactive
5) FC(F)(F)c1cccc(Cl)c1 inactive

Look up outcome for the entries below, preserving their order.
1. C=C(C)C(N)=O
2. CCCCCCCCN
3. NC(=O)NC(N)=O
4. CCC(C)(C)C

Response given:
1. inactive
2. inactive
3. inactive
4. inactive

====

- experimentDescription: Cell Viability - LYMP2-003 (AID 965);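 further: cells exposed to compounds for 24 h before reading; 0% = DMSO only and full effect = 92 µM tetraoctylammonium bromide; nearly all actives have a fitted effect of over 50% in size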
- particulars: LYMP2-003 lymphoblastoid cell viability; series mostly up to 92.2 µM
Records with an inconclusive call do not appear. Activity calls are given as the source filed them. The call rests on the fitted dose curve; in most records, active means well fitted cell-killing curve with a large enough effect; inconclusive means small, poorly fitted or top-dose-only effect, or effect the other way; inactive means flat fitted curve, though single readings scatter.
assayReadout: outcome

Consider the following illustrative entries.
compound	assayReadout	result
Cc1ccc(C)cc1	outcome	inactive
Cc1cc(C)cc(O)c1	outcome	inactive
CC(=O)c1nccs1	outcome	inactive
COc1cccc(N)c1	outcome	inactive
Nc1c(Cl)cc(Cl)cc1Cl	outcome	inactive

Provide reported outcome for each item, in the same order as listed.
1. N#CC1(O)CCCCC1
2. Nc1cc(Cl)c(N)c(Cl)c1
3. C[C@@H]1CC2(OC[C@]3(C)O[C@H]23)O[C@H]2C[C@@]3(C)[C@@H]4CC[C@H]5C(C)(C)C(O[C@@H]6OC[C@@H](O)[C@H](O)[C@H]6O)CC[C@@]56C[C@@]46CC[C@]3(C)[C@@H]12 (some centres undefined)
4. CC=C(Cl)Cl
5. BrC(Br)C(Br)Br
6. Nc1cccc2c(=O)[nH][nH]c(=O)c12
7. CCCCCCCCCCCCOCC1CO1 (centres undefined)

Response given:
1. inactive
2. inactive
3. inactive
4. inactive
5. inactive
6. inactive
7. inactive

I'm hoping you can list outcome for every compound here, please.
1. O=C(O)c1ccc(CO)o1
2. CC(=O)CCc1ccccc1

Response given:
1: inactive; 2: inactive

====

Give measured max response for each item. Keep answers brief.
- experimentDescription: qHTS assay for cell viability of HEK293 cells (AID 743288); further: on the % scale 0 is the no-effect control and ±100 the full control effect; nearly all actives have a fitted effect of over 50% in size
- particulars: ATP luminescence (CellTiter-Glo), 18 h, stronger effect = lower value
Results filed as inconclusive are left out.
One number for each entry, in %.

Below, each entry is followed by its recorded max response result.
compound	unitAnnotation	max response
CCC=O	%	1.05
O=Cc1ccccc1Cl	%	-11.9
O=Cc1c(Cl)cccc1Cl	%	-9.95
CC(=O)CCc1ccccc1	%	0.331
Cc1ccc2nc(-c3ccc(N)cc3)sc2c1S(=O)(=O)O	%	-7.88

I need max response for every entry listed below, if you could help.
1. CN(C)c1cccc(O)c1
2. Clc1ccccn1
3. CCOc1ccc(NC(C)=O)cc1N
4. C=CCOC(=O)COCCC(C)C
5. Cc1c(N)cccc1[N+](=O)[O-]
6. CCNS(=O)(=O)c1ccc(C)cc1
7. C=CCOC(=O)CCCCCCCC

Response given:
1: -2.96; 2: -2.77; 3: -2.43; 4: -0.0294; 5: 11.6; 6: -4.78; 7: -7.54
